Cited source: patent US20160257744A1

- tested-target: T1, interleukin 5 (IL5) (human, UniProt P05113 20-134)
- T1 construct: also called human IL5 (R&D Systems)
- T1 sequence (looked up): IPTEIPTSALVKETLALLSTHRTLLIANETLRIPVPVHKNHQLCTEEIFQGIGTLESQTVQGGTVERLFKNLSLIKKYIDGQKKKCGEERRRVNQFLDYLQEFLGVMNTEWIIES
- experiment-notes: phage competition ELISA (phage IC50), soluble IL5 against IL5-coated wells
measurement-name: IC50

binder | IC50
1C.42 (Fab, V domains shown) VH: EVQLVQSGAEVKKPGASVKVSCKASGYTFTDYFIHWVRQAPGQGLEWIGGIVYDATGFTTYADSFKGRVTITRDTSTSTAYLELSSLRSEDTAVYYCARGGIFYGMDYWGQGTLVTVSS VL: DIQMTQSPSSLSASVGDRVTITCKASQSVINDAAWYQQKPGKAPKLLIYYTSHRYTGVPSRFSGSGSGTDFTLTISSLQEDFATYYCQQDYTHPWTFGQGTKVEIKR | 8.5 nM

Look up IC50: 1C.36 (Fab, V domains shown, same clone as m16 and m18, here in the phage format) VH: EVQLVQSGAEVKKPGASVKVSCKASGYTFTDYFIHWVRQAPGQGLEWIGGIVYDATGFTTYAEEFKGRVTITRDTSTSTAYLELSSLRSEDTAVYYCARGGIFYGMDYWGQGTLVTVSS VL: DIQMTQSPSSLSASVGDRVTITCKASQSVINDAAWYQQKPGKAPKLLIYYTSHRYTGVPSRFSGSGSGTDFTLTISSLQEDFATYYCQQDYTHPWTFGQGTKVEIKR 0.9 nM

Look up IC50: 2B.48 (Fab, V domains shown) VH: EVQLVQSGAEVKKPGASVKVSCKASGYTFTDYFIHWVRQAPGQGLEWIAGIVYDATGFTTYADAFKGRVTITRDTSTSTVYLELSSLRSEDTAVYYCARGGIFYGMDYWGQGTLVTVSS VL: DIQMTQSPSSLSASVGDRVTITCKASQSVINDAAWYQQKPGKAPKLLIYYTSHRYTGVPSRFSGSGSGTDFTLTISSLQEDFATYYCQQDYTSPWTFGQGTKVEIKR 9.2 nM
